# Tested on: CD2F1 mice, L1210 leukemia ip, survival T/C
# assay overview: NCI In Vivo Anticancer Drug Screen. Data for tumor model L1210 Leukemia (intraperitoneal) in CD2F1 (CDF1) mice
# run parameters: endpoint: mean survival time; dose: 12.5 mg/kg/injection; schedule: Q01DX009 (ip); vehicle: saline with Tween-80; higher = longer survival
Inconclusive results and toxic doses are left out.

{"columns": ["molecule", "subject of test", "T/C"],
 "data": [
  ["COc1ccccc1C1N(C)CCCN1C", "CD2F1 mice, L1210 leukemia ip, survival T/C", "102 % of control"],
  ["[Cl][Pt+2]([Cl])([Cl])[Cl].[NH-]C1CCCCC1.[NH-]C1CCCCC1", "CD2F1 mice, L1210 leukemia ip, survival T/C", "96 % of control"],
  ["N#CC(C#N)=C(C#N)c1ccccc1", "CD2F1 mice, L1210 leukemia ip, survival T/C", "96 % of control"],
  ["Cc1ccc(NC(=O)OCCOc2ccccc2Cl)cc1[N+](=O)[O-]", "CD2F1 mice, L1210 leukemia ip, survival T/C", "98 % of control"],
  ["NC(CS(=O)c1ccc(Cl)cc1)C(=O)O (stereo unspecified)", "CD2F1 mice, L1210 leukemia ip, survival T/C", "94 % of control"],
  ["O=S(=O)(Cl)OC1C2COC(O2)C(OS(=O)(=O)Cl)C1OS(=O)(=O)Cl (stereo unspecified)", "CD2F1 mice, L1210 leukemia ip, survival T/C", "108 % of control"]
]}

###

# Tested on: CD2F1 mice, L1210 leukemia ip, survival T/C
# assay overview: NCI In Vivo Anticancer Drug Screen. Data for tumor model L1210 Leukemia (intraperitoneal) in CD2F1 (CDF1) mice
# run parameters: endpoint: mean survival time; dose: 75.0 mg/kg/injection; schedule: Q01DX009 (ip); vehicle: saline; higher = longer survival
# Description: The antitumor activity of compounds was measured in mice bearing transplantable tumors. Survival or tumor size were measured and the results are expressed as the measurement made in the treated group (T) divided by the measurement made in the vehicle treated control group (C). The tumor model used in this assay is L1210 Leukemia (intraperitoneal) in CD2F1 (CDF1) mice
Inconclusive results and toxic doses are left out.

{"columns": ["compound", "T/C"],
 "data": [
  ["O=C1O/C(=C\\c2ccccc2)c2c(Br)c(Br)c(Br)c(Br)c21", "96 % of control"],
  ["CC1CCC(C(C)C)C(NCCO)C1 (stereo unspecified)", "100 % of control"],
  ["CCCCCCCCCCCCCCOS(=O)(=O)O", "93 % of control"],
  ["NCCSC1(O)C(=O)c2ccccc2-c2ccccc21 (stereo unspecified)", "101 % of control"],
  ["C/C(=N\\Nc1nc2ccccc2s1)c1ccc2c(c1)Sc1ccccc1O2", "95 % of control"],
  ["NC(C(=O)O)C(O)C(=O)O (stereo unspecified)", "97 % of control"]
]}

###

# Tested on: CD2F1 mice, L1210 leukemia ip, survival T/C
# assay overview: NCI In Vivo Anticancer Drug Screen. Data for tumor model L1210 Leukemia (intraperitoneal) in CD2F1 (CDF1) mice
# run parameters: endpoint: mean survival time; dose: 200.0 mg/kg/injection; schedule: Q01DX009 (ip); vehicle: saline with Tween-80; higher = longer survival
Toxic doses and inconclusive results are not listed.
parameter: T/C

{"columns": ["compound", "test result"],
 "data": [
  ["CC(=O)C1=C(C)NC(C)=C(C(C)=O)C1C", "95 % of control"],
  ["CC(CN)OS(=O)(=O)O (stereo not given)", "101 % of control"],
  ["CCCCCCCCCCCCC(=O)N1CCOCC1", "94 % of control"],
  ["COC1=CC(=O)C2(C)CC=CCC2C1 (stereo not given)", "95 % of control"],
  ["Cc1c(C)c2c(c(C)c1O)CC(CC(=O)CO)CO2 (stereo not given)", "100 % of control"],
  ["CCc1ncc(C(C)(O)c2ccc(C)cc2)n1Cc1ccccc1 (stereo not given)", "90 % of control"],
  ["CC(Br)C(=O)NC(Cc1ccccc1)C(=O)O (stereo not given)", "97 % of control"],
  ["Clc1ccc(CSCc2ccc(Cl)cc2Cl)c(Cl)c1", "100 % of control"],
  ["CCn1c(COc2ccc(Br)cc2)c(COC(=O)c2cccc(Cl)c2)c2ccccc21", "92 % of control"],
  ["c1ccc(N/N=C(/N=Nc2ccc(-c3ccc(N=N/C(=N/Nc4ccccc4)c4ccccc4)cc3)cc2)c2ccccc2)cc1", "102 % of control"],
  ["CC(=O)Nc1cc(/C=C/c2ccccc2)ccc1S(=O)(=O)c1ccc(/C=C/c2ccccc2)cc1NC(C)=O", "96 % of control"],
  ["NC(=O)C1=C2CCCc3cccc(c32)C1=O", "94 % of control"],
  ["O=C1CCC2(CC1C1C=CCC1)OCCO2 (stereo not given)", "94 % of control"],
  ["CNC(=O)Nc1nncs1", "104 % of control"],
  ["CCN(C(=O)Nc1ccc(Cl)cc1)c1ccccc1C", "94 % of control"],
  ["CCCCC(CC)C(=O)N1CCOCC1 (stereo not given)", "92 % of control"],
  ["Nc1ccc2ccccc2c1S(=O)(=O)O", "93 % of control"],
  ["C=CCc1ccc(OC(=O)Nc2ccc(C)c([N+](=O)[O-])c2)c(OC)c1", "88 % of control"],
  ["[C-]#[O+].[C-]#[O+].[C-]#[O+].[C-]#[O+].[C-]#[O+].[Cr].c1ccc(O[PH+](Oc2ccccc2)Oc2ccccc2)cc1", "91 % of control"],
  ["O=C(O)/C(=C\\c1ccccc1)c1ccccc1", "101 % of control"],
  ["CC/C=C\\CC1OCCO1", "95 % of control"],
  ["O=C(N/N=C/Cc1ccccc1)c1cc2ccccc2cc1O", "95 % of control"],
  ["CN(C)CCOc1ccc2c(c1)C/C(=C/c1ncc([N+](=O)[O-])n1C)C2=O", "111 % of control"],
  ["Cc1ccc(N=C(N)NC#N)cc1", "93 % of control"],
  ["O=C1CC(c2ccccc2)C(c2ccccc2)=C1Cl (stereo not given)", "98 % of control"]
]}
